Listed here: items and their measured inhibition at 30 µM.
- test_system: hERG (Homo sapiens)
- Construct: expressed in transfected cells
- test: hERG inhibition, IKr current, patch clamp in HEK cells stably transfected with the hERG clone
- Format: cell-based
- condition: human, HEK cells stably transfected with hERG, pH 7.4, 30 μM; read-out: Percent Inhibition Trial II (IKr current)
Answer in %, number only, no unit symbol.

Example compounds with recorded inhibition at 30 µM:
compound: CN1c2ccccc2C(O)C2CN(Cc3ccccc3)CCC21 (stereo not drawn)
units_symbol: %
inhibition at 30 µM: 54.1

compound: O=c1c2c([nH]c3cc(F)c(F)cc13)CCN(Cc1ccccc1)C2
units_symbol: %
inhibition at 30 µM: 26.2

Shifting focus to the compound that follows.
Lookup: Need inhibition at 30 µM, item Cn1c2c(c(=O)c3ccccc31)CN(Cc1ccccc1)CC2
Found: 58.3

----------
- test_system: hERG (Homo sapiens)
- Construct: expressed in transfected cells
- test: hERG inhibition, IKr current, patch clamp in HEK cells stably transfected with the hERG clone
- Assay type: cell-based
- condition: human, HEK cells stably transfected with hERG, pH 7.4, 10 μM; mean of two trials; read-out: Percent Inhibition Mean (%) (IKr current)
parameter: inhibition at 10 µM (%)
Answer in %, number only, no unit symbol.

Example compounds with recorded inhibition at 10 µM:
compound: O=c1c2c([nH]c3cc(F)c(F)cc13)CCN(Cc1ccccc1)C2
test_system: hERG (Homo sapiens)
parameter: inhibition at 10 µM
units_symbol: %
test_value: 21.4

compound: Cn1c2c(c(=O)c3ccccc31)CN(Cc1ccccc1)CC2
test_system: hERG (Homo sapiens)
parameter: inhibition at 10 µM
units_symbol: %
test_value: 37.8

Lookup: Need inhibition at 10 µM, item CN1c2ccccc2C(O)C2CN(Cc3ccccc3)CCC21 (stereo not drawn)
Found: 28.9

----------
- test_system: CYP2C19 (Homo sapiens, UniProt P33261)
- Construct: premixing appropriate volumes of buffer, microsomes and substrate; from tissue
- Sequence (P33261 whole entry): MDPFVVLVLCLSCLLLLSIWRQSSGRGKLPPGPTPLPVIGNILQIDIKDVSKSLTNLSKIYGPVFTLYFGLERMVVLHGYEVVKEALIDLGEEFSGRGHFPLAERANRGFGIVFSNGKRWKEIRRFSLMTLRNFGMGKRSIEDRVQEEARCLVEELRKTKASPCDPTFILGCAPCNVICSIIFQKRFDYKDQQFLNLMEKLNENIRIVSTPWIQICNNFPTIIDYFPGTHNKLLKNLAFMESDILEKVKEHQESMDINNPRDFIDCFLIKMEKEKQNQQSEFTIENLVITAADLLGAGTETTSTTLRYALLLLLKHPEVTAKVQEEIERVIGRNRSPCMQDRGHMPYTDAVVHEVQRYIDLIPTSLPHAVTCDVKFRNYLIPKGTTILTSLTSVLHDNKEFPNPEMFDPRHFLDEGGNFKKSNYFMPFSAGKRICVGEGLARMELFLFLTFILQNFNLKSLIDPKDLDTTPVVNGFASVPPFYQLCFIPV
- test: CYP inhibition, microsomes
- Type: in vitro ADME
- condition: metabolite 4′-hydroxy mephenytoin, class symbols
pIC50: −log10 of the molar value.
parameter: pIC50

Lookup: Need pIC50, item O=c1c2c([nH]c3cc(F)c(F)cc13)CCN(Cc1ccccc1)C2
Found: 4.70 to 5.30

----------
- test_system: hERG (Homo sapiens, UniProt Q12809)
- Construct: expressed in transfected cells
- Sequence (Q12809 whole entry): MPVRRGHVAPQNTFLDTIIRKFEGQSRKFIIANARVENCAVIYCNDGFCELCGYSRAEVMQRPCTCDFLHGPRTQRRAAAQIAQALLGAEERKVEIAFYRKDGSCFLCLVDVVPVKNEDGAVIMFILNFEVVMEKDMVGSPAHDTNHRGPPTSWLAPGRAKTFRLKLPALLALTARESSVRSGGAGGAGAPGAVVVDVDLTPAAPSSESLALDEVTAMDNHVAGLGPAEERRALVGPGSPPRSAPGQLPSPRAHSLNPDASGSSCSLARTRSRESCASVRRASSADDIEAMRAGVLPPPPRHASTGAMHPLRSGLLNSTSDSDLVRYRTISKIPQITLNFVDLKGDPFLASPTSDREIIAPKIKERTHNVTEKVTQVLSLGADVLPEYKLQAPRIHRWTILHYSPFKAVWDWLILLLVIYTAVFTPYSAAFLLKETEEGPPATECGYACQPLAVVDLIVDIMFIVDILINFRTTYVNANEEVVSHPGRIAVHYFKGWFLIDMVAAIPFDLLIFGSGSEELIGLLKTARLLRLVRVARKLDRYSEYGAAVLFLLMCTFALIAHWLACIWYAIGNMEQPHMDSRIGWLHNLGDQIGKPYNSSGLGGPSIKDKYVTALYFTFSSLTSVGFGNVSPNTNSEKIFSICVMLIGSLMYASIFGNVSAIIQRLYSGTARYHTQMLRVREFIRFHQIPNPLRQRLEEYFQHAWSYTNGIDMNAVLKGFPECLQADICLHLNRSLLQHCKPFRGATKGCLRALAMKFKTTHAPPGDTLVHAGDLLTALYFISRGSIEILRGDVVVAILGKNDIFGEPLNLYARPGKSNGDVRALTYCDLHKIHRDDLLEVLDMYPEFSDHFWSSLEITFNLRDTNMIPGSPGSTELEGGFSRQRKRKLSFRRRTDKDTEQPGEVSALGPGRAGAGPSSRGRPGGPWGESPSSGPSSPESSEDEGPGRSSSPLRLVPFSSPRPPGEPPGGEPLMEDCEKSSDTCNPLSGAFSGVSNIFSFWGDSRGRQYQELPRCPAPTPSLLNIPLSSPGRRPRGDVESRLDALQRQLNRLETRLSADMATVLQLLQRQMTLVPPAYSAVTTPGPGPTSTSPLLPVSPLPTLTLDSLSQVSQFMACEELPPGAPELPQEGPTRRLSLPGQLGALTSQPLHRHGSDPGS
- test: hERG inhibition, IKr current, patch clamp in HEK cells stably transfected with the hERG clone
- Format: cell-based
- condition: human, HEK cells stably transfected with hERG, pH 7.4, 30 μM; mean of two trials; read-out: Percent Inhibition Mean (%) (IKr current)
parameter: inhibition at 30 µM (%)
Answer in %, number only, no unit symbol.

compound: CN1c2ccccc2C(O)C2CN(Cc3ccccc3)CCC21 (stereo not drawn)
test_system: hERG (Homo sapiens, UniProt Q12809)
inhibition at 30 µM [%]: 54.4
//
compound: Cn1c2c(c(=O)c3ccccc31)CN(Cc1ccccc1)CC2
test_system: hERG (Homo sapiens, UniProt Q12809)
inhibition at 30 µM [%]: 58.6

Shifting focus to the compound that follows.
Lookup: Need inhibition at 30 µM, item O=c1c2c([nH]c3cc(F)c(F)cc13)CCN(Cc1ccccc1)C2
Found: 30.1

Cited source for all entries: patent US11434239B2
